Source of measurements: patent US9326973B2

# System: HCV replicon, genotype-1a variant with glutamine 30 changed to glutamate in the NS5A protein
# protocol_description: microbe, parasite or virus in culture
# Assay type: cell-based, HCV genotype 1a
# experimental_context: HCV replicon genotype 1a Q30E (Q→E) variant; test compound titrated with an NS5A-targeting compound (BMS-790052 fixed at 200 nM); ranking of synergist activity
attribute_measured: Fold-Synergistic 1a (Q30E)

Notebook: CC(C)(C)[C@H](NC(=O)C(F)(F)c1ccccc1)c1nc(-c2ccc(-c3ccc(-c4c[nH]c([C@@H](NC(=O)C(F)(F)c5ccccc5)C(C)(C)C)n4)cc3)cc2)c[nH]1 , Fold-Synergistic 1a (Q30E) read as >100 fold

For O=C(c1cc2ccccc2[nH]1)N1CCC[C@H]1c1ncc(-c2ccc(-c3ccc(-c4cnc([C@@H]5CCCN5C(=O)c5cc6ccccc6[nH]5)[nH]4)cc3)cc2)[nH]1 the molecule record lists Fold-Synergistic 1a (Q30E) as <10 fold

Form: molecule = CC(CO)(CO)C(=O)N[C@H](c1nc(-c2ccc(-c3ccc(-c4c[nH]c([C@@H](NC(=O)C(C)(CO)CO)C(C)(C)C)n4)cc3)cc2)c[nH]1)C(C)(C)C ; Fold-Synergistic 1a (Q30E) = >100 fold

The reported Fold-Synergistic 1a (Q30E) of the molecule CC(C)(C)C(=O)N[C@H](c1ncc(-c2ccc(-c3ccc(-c4cnc([C@@H](NC(=O)C(C)(C)C)C(C)(C)CF)[nH]4)cc3)cc2)[nH]1)C(C)(C)CF was >100 fold

// Fold-Synergistic 1a (Q30E) value for CC(C)(C)[C@H](NC(=O)[C@H]1CC[C@@H](O)CC1)c1nc(-c2ccc(-c3ccc(-c4c[nH]c([C@@H](NC(=O)[C@H]5CC[C@@H](O)CC5)C(C)(C)C)n4)cc3)cc2)c[nH]1 : >100 fold

----------
# Tested on: HCV replicon, genotype-1a variant with glutamine 30 changed to glutamate in the NS5A protein
# protocol_description: microbe, parasite or virus in culture
# Type: cell-based, HCV genotype 1a
# experimental_context: HCV replicon genotype 1a Q30E (Q→E) variant; test compound titrated with an NS5A-targeting compound (BMS-790052 fixed at 200 nM); ranking of synergist activity
For each entry below, report its Fold-Synergistic 1a (Q30E) value.

Data point: COC(=O)N(C)C1(C(=O)N[C@H](c2nc(-c3ccc(-c4ccc(-c5c[nH]c([C@@H](NC(=O)C6(N(C)C(=O)OC)CC6)C6(C)CC6)n5)cc4)cc3)c[nH]2)C2(C)CC2)CC1 ; Fold-Synergistic 1a (Q30E) = >100 fold

Form: molecule = Cc1cc(-c2ccc(-c3c[nH]c([C@@H](NC(=O)C4(C)CCCC4)C(C)C)n3)cc2)ccc1-c1c[nH]c([C@@H](NC(=O)C2(C)CCCC2)C(C)C)n1 ; Fold-Synergistic 1a (Q30E) = >100 fold

So for CC(C)(C)OC(=O)NC1(C(=O)N[C@H](c2nc(-c3ccc(-c4ccc(-c5c[nH]c([C@@H](NC(=O)C6(NC(=O)OC(C)(C)C)CCC(F)(F)CC6)C(C)(C)C)n5)cc4)cc3)c[nH]2)C(C)(C)C)CCC(F)(F)CC1 , the logged Fold-Synergistic 1a (Q30E) turned out to be >100 fold

Record summary for CC(C)(C)[C@H](NC(=O)C1(CO)CCCCO1)c1nc(-c2ccc(-c3ccc(-c4c[nH]c([C@@H](NC(=O)C5(CO)CCCCO5)C(C)(C)C)n4)cc3)cc2)c[nH]1 (some centres unmarked) [Compound P-182] : reported Fold-Synergistic 1a (Q30E) = >100 fold

Lab note: measured Fold-Synergistic 1a (Q30E) of O=C(c1ccnnc1)N1CCC[C@H]1c1ncc(-c2ccc(-c3ccc(-c4cnc([C@@H]5CCCN5C(=O)c5ccnnc5)[nH]4)cc3)cc2)[nH]1 was <10 fold

----------
# System: HCV replicon, genotype-1a variant with glutamine 30 changed to glutamate in the NS5A protein
# protocol_description: microbe, parasite or virus in culture
# Format: cell-based, HCV genotype 1a
# experimental_context: HCV replicon genotype 1a Q30E (Q→E) variant; test compound titrated with an NS5A-targeting compound (BMS-790052 fixed at 200 nM); ranking of synergist activity
attribute_measured: Fold-Synergistic 1a (Q30E)

The compound listed as CC(C)(C)[C@H](NC(=O)C1(N2CCOCC2)CC1)c1nc(-c2ccc(-c3ccc(-c4c[nH]c([C@@H](NC(=O)C5(N6CCOCC6)CC5)C(C)(C)C)n4)cc3)cc2)c[nH]1 [Compound L-31] shows Fold-Synergistic 1a (Q30E) equal to >100 fold

For CC(C)(C)[C@H](NC(=O)C1CCC(=C(F)F)CC1)c1nc(-c2ccc(-c3ccc(-c4c[nH]c([C@@H](NC(=O)C5CCC(=C(F)F)CC5)C(C)(C)C)n4)cc3)cc2)c[nH]1 (some centres unmarked) [Compound N-121] the compound record lists Fold-Synergistic 1a (Q30E) as >100 fold

For reference, reported Fold-Synergistic 1a (Q30E) for CC1([C@H](NC(=O)C2CC(=O)C2)c2nc(-c3ccc(-c4ccc(-c5c[nH]c([C@@H](NC(=O)C6CC(=O)C6)C6(C)CC6)n5)cc4)cc3)c[nH]2)CC1 [Compound W-174] stands at >100 fold

Quick note, Fold-Synergistic 1a (Q30E) for CC(=O)N1CCC(C(=O)N[C@H](c2nc(-c3ccc(-c4ccc(-c5c[nH]c([C@@H](NC(=O)C6CCN(C(C)=O)CC6)C(C)(C)C)n5)cc4)cc3)c[nH]2)C(C)(C)C)CC1 [Compound S-297] landed at >10 fold

Fold-Synergistic 1a (Q30E) measured on CC(C)[C@H](NC(=O)[C@@H]1C[C@@H](O)CN1C(=O)OC(C)(C)C)c1nc(-c2ccc(-c3ccc(-c4c[nH]c([C@@H](NC(=O)[C@@H]5C[C@@H](O)CN5C(=O)OC(C)(C)C)C(C)C)n4)cc3)cc2)c[nH]1 [Compound W-97] = >100 fold

----------
# Tested on: HCV replicon, genotype-1a variant with glutamine 30 changed to glutamate in the NS5A protein
# protocol_description: microbe, parasite or virus in culture
# Format: cell-based, HCV genotype 1a
# experimental_context: HCV replicon genotype 1a Q30E (Q→E) variant; test compound titrated with an NS5A-targeting compound (BMS-790052 fixed at 200 nM); ranking of synergist activity
Task for the reader: assign each of the following compounds its reported Fold-Synergistic 1a (Q30E).

Entry under test: O=C(CC1CC1)N1CCC[C@H]1c1ncc(-c2ccc(-c3ccc(-c4cnc([C@@H]5CCCN5C(=O)CC5CC5)[nH]4)cc3)cc2)[nH]1 . Its Fold-Synergistic 1a (Q30E) was <10 fold

Just so you know, measured Fold-Synergistic 1a (Q30E) for CN(C)C(=O)OC1(C(=O)N[C@H](c2nc(-c3ccc(-c4ccc(-c5c[nH]c([C@@H](NC(=O)C6(OC(=O)N(C)C)CC6)C(C)(C)C)n5)cc4)cc3)c[nH]2)C(C)(C)C)CC1 came out at >100 fold

Fold-Synergistic 1a (Q30E) measured on CC(C)(C)[C@H](NC(=O)CN1CCOC1=O)c1nc(-c2ccc(-c3ccc(-c4c[nH]c([C@@H](NC(=O)CN5CCOC5=O)C(C)(C)C)n4)cc3)cc2)c[nH]1 = >10 fold

----------
# System: HCV replicon, genotype-1a variant with glutamine 30 changed to glutamate in the NS5A protein
# protocol_description: microbe, parasite or virus in culture
# Assay type: cell-based, HCV genotype 1a
# experimental_context: HCV replicon genotype 1a Q30E (Q→E) variant; test compound titrated with an NS5A-targeting compound (BMS-790052 fixed at 200 nM); ranking of synergist activity
attribute_measured: Fold-Synergistic 1a (Q30E)

GET /value?item= CCCC(C)C(=O)N1CCC[C@H]1c1ncc(-c2ccc(-c3ccc(-c4cnc([C@@H]5CCCN5C(=O)C(C)CCC)[nH]4)cc3)cc2)[nH]1 (stereo partly shown) &field=Fold-Synergistic 1a (Q30E) returns <10 fold

get_value(item= CC(C)(C)[C@H](NC(=O)[C@H]1CC[C@@](C)(O)CC1)c1nc(-c2ccc(-c3ccc(-c4c[nH]c([C@@H](NC(=O)[C@H]5CC[C@@](C)(O)CC5)C(C)(C)C)n4)cc3)cc2)c[nH]1 , readout=Fold-Synergistic 1a (Q30E)) returns >100 fold

The reported Fold-Synergistic 1a (Q30E) of the compound Cc1cccc(C(=O)N2CCC[C@H]2c2ncc(-c3ccc(-c4ccc(-c5cnc([C@@H]6CCCN6C(=O)c6cccc(C)n6)[nH]5)cc4)cc3)[nH]2)n1 was <10 fold

Reported Fold-Synergistic 1a (Q30E) of CC(C)(C)[C@H](NC(=O)[C@H]1C[C@](C)(O)C1)c1nc(-c2ccc(-c3ccc(-c4c[nH]c([C@@H](NC(=O)[C@H]5C[C@](C)(O)C5)C(C)(C)C)n4)cc3)cc2)c[nH]1 : >100 fold

GET /value?item= CC(C)[C@H](NC(=O)c1cc(Cl)ccc1F)c1nc(-c2ccc3c(c2)Cc2cc(-c4c[nH]c([C@@H](NC(=O)c5cc(Cl)ccc5F)C(C)C)n4)ccc2-3)c[nH]1 &field=Fold-Synergistic 1a (Q30E) returns >100 fold

# Fold-Synergistic 1a (Q30E) of CC(C)[C@H](NC(=O)c1cc(Cl)ccc1F)c1nc(-c2ccc3c(c2)CCc2cc(-c4c[nH]c([C@@H](NC(=O)c5cc(Cl)ccc5F)C(C)C)n4)ccc2-3)c[nH]1 = >100 fold

Query COC(=O)N1CCC[C@@]1(C)C(=O)N[C@H](c1nc(-c2ccc(-c3ccc(-c4c[nH]c([C@@H](NC(=O)[C@]5(C)CCCN5C(=O)OC)C(C)(C)C)n4)cc3)cc2)c[nH]1)C(C)(C)C yields Fold-Synergistic 1a (Q30E) of >100 fold

O=C(c1cncnc1)N1CCC[C@H]1c1ncc(-c2ccc(-c3ccc(-c4cnc([C@@H]5CCCN5C(=O)c5cncnc5)[nH]4)cc3)cc2)[nH]1 has a reported Fold-Synergistic 1a (Q30E) of <10 fold

Data point: Cc1ncccc1C(=O)N1CCC[C@H]1c1ncc(-c2ccc(-c3ccc(-c4cnc([C@@H]5CCCN5C(=O)c5cccnc5C)[nH]4)cc3)cc2)[nH]1 ; Fold-Synergistic 1a (Q30E) = <10 fold

Form: compound = CC(C)[C@H](NC(=O)[C@@H]1C[C@H](O)CN1C(=O)OC(C)(C)C)c1nc(-c2ccc(-c3ccc(-c4c[nH]c([C@@H](NC(=O)[C@@H]5C[C@H](O)CN5C(=O)OC(C)(C)C)C(C)C)n4)cc3)cc2)c[nH]1 ; Fold-Synergistic 1a (Q30E) = >100 fold

# compound COC(=O)N[C@H](C(=O)N[C@@H](CC(C)C)c1nc(-c2ccc(-c3ccc(-c4c[nH]c([C@H](CC(C)C)NC(=O)[C@@H](NC(=O)OC)C(C)C)n4)cc3)cc2)c[nH]1)C(C)C ; its Fold-Synergistic 1a (Q30E) = <10 fold

Please fill in: Fold-Synergistic 1a (Q30E) reported for O=C(C1CCC1)N1CCC[C@H]1c1ncc(-c2ccc(-c3ccc(-c4cnc([C@@H]5CCCN5C(=O)C5CCC5)[nH]4)cc3)cc2)[nH]1 = <10 fold

Reported Fold-Synergistic 1a (Q30E) ( O=C(c1cccc2cnccc12)N1CCC[C@H]1c1ncc(-c2ccc(-c3ccc(-c4cnc([C@@H]5CCCN5C(=O)c5cccc6cnccc56)[nH]4)cc3)cc2)[nH]1 ) = <10 fold

Fold-Synergistic 1a (Q30E) in this record for COc1ccc2c(C(=O)N3CCC[C@H]3c3ncc(-c4ccc(-c5ccc(-c6cnc([C@@H]7CCCN7C(=O)c7nccc8cc(OC)ccc78)[nH]6)cc5)cc4)[nH]3)nccc2c1 : >100 fold

In plain terms, CC(C)(C)[C@H](NC(=O)C(C)(C)C1(O)CCOCC1)c1nc(-c2ccc(-c3ccc(-c4c[nH]c([C@@H](NC(=O)C(C)(C)C5(O)CCOCC5)C(C)(C)C)n4)cc3)cc2)c[nH]1 has a documented Fold-Synergistic 1a (Q30E) of >100 fold

Fold-Synergistic 1a (Q30E) measured on CC(C)(C)[C@H](NC(=O)C(F)(F)C(O)c1cccnc1)c1nc(-c2ccc(-c3ccc(-c4c[nH]c([C@@H](NC(=O)C(F)(F)C(O)c5cccnc5)C(C)(C)C)n4)cc3)cc2)c[nH]1 (stereo partly shown) = >100 fold

// field: Fold-Synergistic 1a (Q30E); key: CC(C)[C@H](NC(=O)C(C)(C)C)c1nc(-c2ccc(-c3ccc(-c4c[nH]c([C@@H](NC(=O)C(C)(C)C)C(C)C)n4)cn3)cc2)c[nH]1 ; value = >100 fold

So for CCC(F)(F)C(=O)N[C@H](c1nc(-c2ccc(-c3ccc(-c4c[nH]c([C@@H](NC(=O)C(F)(F)CC)C(C)(C)C)n4)cc3)cc2)c[nH]1)C(C)(C)C , the logged Fold-Synergistic 1a (Q30E) turned out to be >100 fold

Just so you know, measured Fold-Synergistic 1a (Q30E) for CC(C)(C)OC(=O)N1CCC[C@]1(C)C(=O)N[C@H](c1nc(-c2ccc(-c3ccc(-c4c[nH]c([C@@H](NC(=O)[C@@]5(C)CCCN5C(=O)OC(C)(C)C)C(C)(C)C)n4)cc3)cc2)c[nH]1)C(C)(C)C came out at >100 fold
